test: folding stability dG unfold (combined trypsin and chymotrypsin); higher = more stable
Below, each of the sequences is paired with its reported folding stability dG unfold value.
Give just the number in kcal/mol; leave the unit off.

Solved cases below.
{"Construct Sequence": "SAGGSMSLEGVSTVSEEKFPEKPTTLVPLTYPDGTTVEANRTLDPVTGKWTLPVTTPDGTVVVVDESAGGSA [r2_490_JUSTAS]", "folding stability dG unfold [kcal/mol]": 0.977}
{"Construct Sequence": "SAGGSAGGSIPPGEEVPLRIKIWNPDNGKPRNEIPITMWVGDAEEIAEEFASTFPGYRVEIDPSAGGSAGGS [r12_21_TrROS]", "folding stability dG unfold [kcal/mol]": 0.102}
{"Construct Sequence": "SAGGSAGGSKKKKKKKKKIKVLIRNKKTGKWFEAEAEVVDGELYIKVNGKIYKIKGPVEIELVSAGGSAGGS [r12_683_TrROS_Hall]", "folding stability dG unfold [kcal/mol]": 3.3}

**Q:** Requested read-out: folding stability dG unfold. Entry: SALRPDIPFDAVEKVVIPARHPLLGGVVEAGVYRLKDSDAVLVVVTFPDGSKLVFLVRPDDVLDVLDAISAG [r14_240_TrMRF]
**A:** 2.75

Source: the supplement of paper PMC12764529
